Test system: TK-10
Assay: NCI tumour cell line growth inhibition, 48 h
Active and inactive are the calls of the source. Cut-off read from the data, not from the text of the source: active = GI50 up to about 1.1 µM and inactive = higher.
Listed molecules paired with reported GI50

| Molecule | GI50 |
| --- | --- |
| N#Cc1ccc(-c2nc(C#N)c(N)o2)cc1 | > 10 µM (inactive) |
| CCCCCCCCCCCCCCCCCCNc1nc(=O)n(C2CC(OP(=O)(O)OCC3OC(n4cc(F)c(=O)[nH]c4=O)CC3O)C(CO)O2)cc1F (stereo not given) | 70.5 µM (inactive) |
| N#CC(C#N)=C(N)/C(C#N)=C/c1ccc2ccccc2n1 | > 100 µM (inactive) |
| CCCCCCCCCCCNC=O | 37.7 µM (inactive) |
| O=C1N/C(=N/N=C/c2c[nH]c3ccccc23)N/C1=C\c1cccs1 | > 100 µM (inactive) |
| O=C1C(=O)c2ccccc2C=C1[N+](=O)[O-] | > 100 µM (inactive) |
| CC(C)(C)C1CCC2c3c([nH]c4ccccc34)C3C(=O)N(c4cccc([N+](=O)[O-])c4)C(=O)C3C2C1 (stereo not given) | 38.5 µM (inactive) |
| O=c1ccc2ccc(O)cc2o1 | > 100 µM (inactive) |
| C=C1C[C@@H]2C[C@@H](C)CC(O)[C@]2(CCCN)C1O (stereo not given in full) | > 100 µM (inactive) |
| COC(=O)C1=C(O)C(C(=O)OC)[C@]2(O)[C@@H](C(=O)OC)[C@H]1[C@H](C)[C@@H](c1ccccc1)[C@@H]2C(=O)OC (stereo not given in full) | > 100 µM (inactive) |
| O=C1NC2(CCN(CCCC3(c4ccc(F)cc4)OCCO3)CC2)Oc2ccccc21 | > 100 µM (inactive) |
| CN1CCN(c2ccc3[nH]c(-c4ccc5[nH]c(-c6ccc(N(C)CCCl)cc6)nc5c4)nc3c2)CC1 | 2.87 µM (inactive) |
| COc1ccccc1C1SCC(=O)N1c1ccc(-c2ccc(-n3c(-c4ccccc4)nc4ccccc4c3=O)cc2)cc1 (stereo not given) | > 100 µM (inactive) |
| C1=Cc2ccccc2C1.C=C(C)c1ccccc1.[N-]=[N+]=Nc1ccccc1 | > 100 µM (inactive) |
| CCCCCCc1cc(C=O)sc1-c1ccc(-c2sc(-c3ccc(-c4ccc(-c5cc(CCCCCC)c(-c6ccc(-c7sc(C=O)cc7CCCCCC)s6)s5)s4)s3)cc2CCCCCC)s1 | > 100 µM (inactive) |
| COc1ccc(/N=C/N(C)C)c(C)c1 | 19.8 µM (inactive) |
| COC(=O)C1CCc2nnc(-c3ccccc3)n21 (stereo not given) | > 100 µM (inactive) |
| O=c1[nH]c2nc3ccccc3c(=O)n2/c1=C/c1ccc(Cl)cc1 | 58.5 µM (inactive) |
| O=C1CNc2cc(N3CCCCC3)ccc2N1 | > 100 µM (inactive) |
| COCn1cnc2c(=O)n(-c3ccc(C)cc3)c(=S)n(-c3ccc(C)cc3)c21 | > 100 µM (inactive) |

* * *

Listed compounds paired with reported GI50
Tested on: ACHN
Assay: NCI tumour cell line growth inhibition, 48 h
Activity calls are given as the source filed them. Rule as the data show it: active = GI50 up to about 1.1 µM and inactive = higher.

| Compound | GI50 |
| --- | --- |
| COC(=O)c1cc2c(cc1CC1Cc3cc4c(cc3C1=O)CCC4)CCC2 (centres undefined) | > 100 µM (inactive) |
| COC(=O)C(=O)C(C(C)=O)C(=O)NCc1ccc(OC)c(OC)c1 (centres undefined) | > 100 µM (inactive) |
| COC(=O)C1=NN2c3ccccc3CN([C@@H](C)c3ccccc3)C(=O)[C@@H]2[C@H]1c1ccccc1 | > 100 µM (inactive) |
| COC(=O)[C@@]12CSC[C@]1(C(=O)OC)N[C@@H](c1ccccc1O)C2 | > 100 µM (inactive) |
| O=C1O/C(=C(\Br)c2cccc3ccccc23)c2ccccc21 | 34.2 µM (inactive) |
| Cn1c2ccccc2c2c3c(c4c5ccccc5n(C)c4c21)C(=O)N(c1ccccc1)C3=O | > 100 µM (inactive) |
| CN1c2ccccc2N(C(=O)c2ccc(Cl)cc2)C(CC(=O)O)c2cccn21 (centres undefined) | > 100 µM (inactive) |
| COC(C)(C)[C@H](O)C(O)CC(C)[C@@H]1CCC23CC12CCC1[C@@]2(C)CCC(OC(C)=O)C(C)(C)C2CC(OC2OC(COC(C)=O)C(O)C(O)C2O)[C@]13C (some centres undefined) | 3.76 µM (inactive) |
| N#C/C(=C\c1ccccc1Br)C(=O)c1ccccc1 | > 53.8 µM (inactive) |
